Target: Kelch-like ECH-associated protein 1 (Homo sapiens, UniProt Q14145)
Sequence (Q14145 whole entry, the tested form may be a part): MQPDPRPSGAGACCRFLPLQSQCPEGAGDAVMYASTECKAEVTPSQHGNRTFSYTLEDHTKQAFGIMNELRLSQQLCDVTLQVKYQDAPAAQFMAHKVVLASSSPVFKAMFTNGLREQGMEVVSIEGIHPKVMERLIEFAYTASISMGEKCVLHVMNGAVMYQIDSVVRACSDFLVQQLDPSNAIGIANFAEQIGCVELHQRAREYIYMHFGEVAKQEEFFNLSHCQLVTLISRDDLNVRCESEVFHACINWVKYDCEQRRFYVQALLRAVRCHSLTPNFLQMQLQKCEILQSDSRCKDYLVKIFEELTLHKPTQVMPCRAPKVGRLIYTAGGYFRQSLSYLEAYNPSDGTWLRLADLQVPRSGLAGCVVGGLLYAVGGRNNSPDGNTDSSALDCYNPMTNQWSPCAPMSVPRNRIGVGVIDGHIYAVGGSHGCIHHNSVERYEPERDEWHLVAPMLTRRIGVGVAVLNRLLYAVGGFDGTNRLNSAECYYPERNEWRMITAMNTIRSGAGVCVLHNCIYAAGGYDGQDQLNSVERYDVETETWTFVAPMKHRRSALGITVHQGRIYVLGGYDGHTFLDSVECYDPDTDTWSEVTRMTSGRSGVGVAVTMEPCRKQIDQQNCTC
Experiment: Inhibition of FITC-9mer Nrf2 peptide binding to recombinant human KEAP1 Kelch domain (321 to 609 residues) expressed in Escherichia coli BL21 (DE3) by fluorescence polarization assay
Entries and their IC50 values follow.

> print(dat)
                      smiles.representation                               target.desc  property.label  observed.result
1  COc1ccc(S(=O)(=O)Cc2ccc(CS(=O)(=O)c3ccc(OC)cc3)c3ccccc23)cc1  Kelch-like ECH-associated protein 1 (Homo sapiens, UniProt Q14145)            IC50          > 25 µM
2  COc1ccc(S(=O)(=O)Nc2ccc(/C=C/C(=O)O)c3ccccc23)cc1  Kelch-like ECH-associated protein 1 (Homo sapiens, UniProt Q14145)            IC50          > 25 µM

Let us examine a further case.
Query: For the compound shown here, COc1ccc(S(=O)(=O)Nc2ccc(CCC(=O)O)c3ccccc23)cc1 , give the reported IC50.
Result: > 25 µM
